A collection of molecules and their measured DR/DR AA
Test: Probe fluorescence ratio response to arachidonate:BSA complex, relative to ADIFAB2 (ΔR/ΔRAD2)
Assay type: binding
Details: arachidonate (AA); response relative to ADIFAB2

Molecule: 11I1, L72A (protein, UniProt P02693 2-132, looked up, variant N11I L72A, acrylodan label) Fatty acid-binding protein, …: AFDGTWKVDRIENYEKFMEKMGINVVKRKLGAHDNLKLTITQEGNKFTVKESSNFRNIDVVFELGVDFAYSAADGTELTGTWTMEGNKLVGKFKRVDNGKELIAVREISGNELIQTYTYEGVEAKRIFKKE
DR/DR AA: 0.58
//
Molecule: 47T1, L72A (protein, UniProt P02693 2-132, looked up, variant F47T L72A, acrylodan label) Fatty acid-binding protein, …: AFDGTWKVDRNENYEKFMEKMGINVVKRKLGAHDNLKLTITQEGNKTTVKESSNFRNIDVVFELGVDFAYSAADGTELTGTWTMEGNKLVGKFKRVDNGKELIAVREISGNELIQTYTYEGVEAKRIFKKE
DR/DR AA: 0.68
//
Molecule: 11W1, L72A (protein, UniProt P02693 2-132, looked up, variant N11W L72A, acrylodan label) Fatty acid-binding protein, …: AFDGTWKVDRWENYEKFMEKMGINVVKRKLGAHDNLKLTITQEGNKFTVKESSNFRNIDVVFELGVDFAYSAADGTELTGTWTMEGNKLVGKFKRVDNGKELIAVREISGNELIQTYTYEGVEAKRIFKKE
DR/DR AA: 0.43
